Answer each item with its documented IC50.
Target: Bifunctional epoxide hydrolase 2 (Homo sapiens)
Sequence (P34913 whole entry): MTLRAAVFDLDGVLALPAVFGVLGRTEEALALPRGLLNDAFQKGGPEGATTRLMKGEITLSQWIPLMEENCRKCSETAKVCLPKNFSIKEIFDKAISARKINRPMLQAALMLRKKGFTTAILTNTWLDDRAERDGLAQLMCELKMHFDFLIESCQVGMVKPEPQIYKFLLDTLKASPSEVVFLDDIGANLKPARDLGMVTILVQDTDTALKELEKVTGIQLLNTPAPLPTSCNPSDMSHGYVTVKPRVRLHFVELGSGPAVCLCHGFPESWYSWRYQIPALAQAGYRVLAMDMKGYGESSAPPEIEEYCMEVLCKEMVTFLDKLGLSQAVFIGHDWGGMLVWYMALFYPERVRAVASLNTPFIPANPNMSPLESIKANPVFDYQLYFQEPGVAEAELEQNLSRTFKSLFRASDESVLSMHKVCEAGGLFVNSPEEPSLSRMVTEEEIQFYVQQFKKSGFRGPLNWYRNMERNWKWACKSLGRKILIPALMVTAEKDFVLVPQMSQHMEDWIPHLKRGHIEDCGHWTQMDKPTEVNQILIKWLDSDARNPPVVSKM
Assay: Inhibition of soluble epoxide hydrolase using (3-Phenyl-oxiranyl)-acetic acid cyano-(6-methoxy-naphthalen-2-yl)-methyl ester) as substrate incubated for 15 mins prior to substrate addition measured every min for 15 mins by fluorometry
One number for each entry, in µM.

// for each molecule below, give its IC50
1. Cn1nnc2cc(NC(=O)NCCC3=CCCCC3)ccc21
2. COc1ccc(NC(=O)c2cccc(-n3cnnn3)c2)cc1

1: 0.47; 2: 1.6

// for each molecule below, give its IC50
1. COc1ccc(-c2nc3cc(C)ccc3[nH]2)cc1OC
2. COc1ccc(CC(=O)Nc2ccc(C)cc2)cc1OC

1: 3.5; 2: 21
